Molecular target: UniProtKB P21397
Sequence (P21397 whole entry): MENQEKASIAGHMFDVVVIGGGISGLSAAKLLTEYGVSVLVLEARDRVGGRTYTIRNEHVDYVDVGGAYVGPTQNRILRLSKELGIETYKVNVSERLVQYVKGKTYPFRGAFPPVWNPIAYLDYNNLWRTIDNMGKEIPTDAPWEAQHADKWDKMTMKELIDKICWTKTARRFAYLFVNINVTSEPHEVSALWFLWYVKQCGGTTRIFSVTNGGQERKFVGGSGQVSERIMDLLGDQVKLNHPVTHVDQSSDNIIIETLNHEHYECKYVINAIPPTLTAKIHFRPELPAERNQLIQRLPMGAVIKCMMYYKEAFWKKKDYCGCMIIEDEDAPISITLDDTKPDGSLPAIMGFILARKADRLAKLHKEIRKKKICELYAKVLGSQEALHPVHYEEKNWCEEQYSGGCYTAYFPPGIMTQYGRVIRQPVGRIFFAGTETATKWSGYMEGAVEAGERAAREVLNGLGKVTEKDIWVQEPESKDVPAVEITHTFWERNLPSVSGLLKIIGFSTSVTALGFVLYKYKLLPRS
Assay: Competitive inhibition of human recombinant MAOA using 0.006 to […] kynuramine as substrate preincubated for 30 mins followed by substrate addition by Lineweaver-Burk plot
PARAMETER: Ki (nM)
The figure you give is taken to be in nM; do not add the unit.

# Ki measured on UniProtKB P21397 for item `O=C1/C(=C/c2ccc(O)cc2)Oc2cc(O)ccc21` = 100
